This collection of values is drawn from paper PMC10786919.

Let's look at some compounds and their measured logD.
Assay: Experimental LogD (partition coefficient)
Settings: not stated, Partition Coeff LogD
Positions of bridges follow the written chain, without caps; N, C: chain ends. Non-standard residues stand in square brackets, D forms with d. Residues, ends and D or L forms follow the SMILES beside them. Lys(N3) = [N-]=[N+]=NCCCC[C@H](N)C(=O)O; R8 = C=CCCCCCC[C@@](C)(N)C(=O)O; Cba = N[C@@H](CC1CCC1)C(=O)O; S5 = C=CCCC[C@](C)(N)C(=O)O; βAla = NCCC(=O)O
value_kind: logD

compound | value_kind | reported_value
CC(=O)N[C@@H](CCCCN=[N+]=[N-])C(=O)NCCC(=O)N[C@@H](CC(C)C)C(=O)N[C@H](C(=O)N[C@@H](Cc1ccccc1)C(=O)N[C@]1(C)CCCCCCC=CCCC[C@@](C)(C(=O)N[C@@H](CO)C(=O)N[C@@H](C)C(=O)N[C@@H](C)C(N)=O)NC(=O)[C@H](CC2CCC2)NC(=O)[C@H](Cc2c[nH]cn2)NC(=O)[C@H](C)NC(=O)[C@H](Cc2c[nH]c3ccccc23)NC(=O)[C@H](Cc2ccc(O)cc2)NC(=O)[C@H](CCC(=O)O)NC1=O)[C@@H](C)O [MP-176, AZIDE-ATSP-7041 (Q9H)] | logD | 2.88
CC(=O)N[C@@H](CS)C(=O)N[C@@H](CCCCN=[N+]=[N-])C(=O)NCCC(=O)N[C@@H](C)C(=O)N[C@H](C(=O)N[C@@H](Cc1ccccc1)C(=O)N[C@]1(C)CCCCCCC=CCCC[C@@](C)(C(=O)N[C@@H](C)C(=O)N[C@@H](C)C(=O)N[C@@H](C)C(N)=O)NC(=O)[C@H](CC2CCC2)NC(=O)[C@H](C)NC(=O)[C@H](C)NC(=O)[C@H](Cc2c[nH]c3ccccc23)NC(=O)[C@H](Cc2ccc(O)cc2)NC(=O)[C@H](C)NC1=O)[C@@H](C)O [MP-987] (Ac-C[Lys(N3)][βAla]ATF[R8]AYWAA[Cba][S5]AAA-NH2; staple 7-14) | logD | 1.12
